# assay.system: cloned human or rodent CNS receptors, channels, and transporters (PDSP panel) (Homo sapiens, UniProt P35372)
# Construct: expressed in transfected cells
# Sequence (P35372 whole entry): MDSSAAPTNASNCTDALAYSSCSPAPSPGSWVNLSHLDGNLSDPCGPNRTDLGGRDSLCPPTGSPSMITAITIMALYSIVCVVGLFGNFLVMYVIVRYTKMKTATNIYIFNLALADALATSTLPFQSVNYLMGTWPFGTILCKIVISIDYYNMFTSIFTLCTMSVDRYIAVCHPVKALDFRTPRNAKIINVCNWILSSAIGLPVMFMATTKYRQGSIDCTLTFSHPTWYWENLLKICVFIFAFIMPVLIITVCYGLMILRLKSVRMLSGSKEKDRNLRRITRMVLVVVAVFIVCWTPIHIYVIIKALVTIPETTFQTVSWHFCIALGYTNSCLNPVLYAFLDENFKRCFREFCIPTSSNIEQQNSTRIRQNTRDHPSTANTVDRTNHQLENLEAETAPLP
# protocol.text: PDSP GPCR panel primary binding assays at 10 μM
# condition.summary: MOR; primary assay, mean inhibition
Measured Mean %, listed per entry for reference.
// return numeric value only (unit: %, not printed)

What value of Mean % has been recorded for this entry: CC(=O)N1CCC(NC(=O)NC23CC4CC(CC(C4)C2)C3)CC1 [UNC10302683A, AR9281] 5.26

Further cases:
What value of Mean % has been recorded for this entry: CCC(=O)N1CCC(NC(=O)Nc2ccc(OC(F)(F)F)cc2)CC1 [UNC10302681A, TPPU] 7.56

What value of Mean % has been recorded for this entry: CNc1nc(C)nc(N[C@H]2CCC[C@@H](C(=O)NCc3ccc(C#N)cc3C(F)(F)F)C2)n1 [UNC10302679A, GSK2256294A] -0.18

What value of Mean % has been recorded for this entry: O=C(NC1CC1)C(=O)C(Cc1ccccc1)NC(=O)[C@H]1CCC(=O)N1Cc1ccccc1 (stereo partly shown) [UNC10302676A, ABT-957 (Alicapistat)] 7.04

----------
# assay.system: cloned human or rodent CNS receptors, channels, and transporters (PDSP panel) (Homo sapiens)
# Construct: expressed in transfected cells
# protocol.text: PDSP GPCR panel primary binding assays at 10 μM
# condition.summary: Receptor 5-HT1B; primary assay, 10 μM
Measured Inhibition 1, listed per entry for reference.

Study these solved cases before continuing.
What value of Inhibition 1 has been recorded for this entry: c1cn2cc(-c3ccc4cn[nH]c4c3)nc(Nc3ccc(N4CCOCC4)cc3)c2n1 [UNC10302678A, Entospletinib (GS-9973)] 21.82%

What value of Inhibition 1 has been recorded for this entry: CCCCNc1ncc2c(-c3ccc(CN4CCN(C)CC4)cc3)cn([C@H]3CC[C@H](O)CC3)c2n1 [UNC2025C, UNC2025] 31.06%

What value of Inhibition 1 has been recorded for this entry: Cl.NC(=O)c1cnc(N[C@@H]2CCCC[C@@H]2N)nc1Nc1cccc(-n2nccn2)c1 [UNC10302682A, P505-15 (PRT06207 HCl)] 53.66%

Further cases:
What value of Inhibition 1 has been recorded for this entry: O=c1oc2ccccc2cc1-c1cn2cc(Cc3ccc(F)cc3)sc2n1 [UNC10302680A, iMDK] 28.3%

----------
# System: cloned human or rodent CNS receptors, channels, and transporters (PDSP panel)
# protocol.text: PDSP GPCR panel primary binding assays at 10 μM
# condition.summary: BZP Rat Brain Site; primary assay, replicate 2
recorded.metric: Inhibition 2 (%)
// return numeric value only (unit: %, not printed)

Study these solved cases before continuing.
What value of Inhibition 2 has been recorded for this entry: CC(=O)N1CCC(NC(=O)NC23CC4CC(CC(C4)C2)C3)CC1 [UNC10302683A, AR9281] -7.42

What value of Inhibition 2 has been recorded for this entry: O=C(NC1CC1)C(=O)C(Cc1ccccc1)NC(=O)[C@H]1CCC(=O)N1Cc1ccccc1 (stereo partly shown) [UNC10302676A, ABT-957 (Alicapistat)] -1.35

What value of Inhibition 2 has been recorded for this entry: CCC(=O)N1CCC(NC(=O)Nc2ccc(OC(F)(F)F)cc2)CC1 [UNC10302681A, TPPU] 7.09

Now for another entry.
What value of Inhibition 2 has been recorded for this entry: CNc1nc(C)nc(N[C@H]2CCC[C@@H](C(=O)NCc3ccc(C#N)cc3C(F)(F)F)C2)n1 [UNC10302679A, GSK2256294A] 5.95
